studySystem: sigma receptor (sigma-1 and sigma-2 sites)
testSummary: Sigma receptor binding assay ([^3 H]DTG, guinea pig brain membrane homogenates)
measurementParameters: Table II; [^3 H]DTG 1.4 nM, guinea pig brain membranes, pH 7.4, 90 minutes room temperature; IC50 values indicated as Ki; read-out: Ki nM (± SEM)
Where a name gives a salt, the structure may show the parent alone.
quantity: Ki
Numeric answer plus unit only.

Here is how some molecules turned out for Ki.
INSERT INTO results (molecule, studysystem, quantity, result) VALUES
  ('COc1ccc(CCCCCN2CCCCC2)cc1 [Compound 24]', 'sigma receptor (sigma-1 and sigma-2 sites)', 'Ki', '4.7 nM'),
  ('O=C(CCCCN1CCC(c2ccc(Cl)cc2)CC1)c1ccc(Cl)c(Cl)c1 [Compound 1, Hydrochloride]', 'sigma receptor (sigma-1 and sigma-2 sites)', 'Ki', '1.8 nM'),
  ('O=C(CCCCN1CCC(c2ccc(Cl)cc2)CC1)c1ccc(Cl)cc1 [Compound 10]', 'sigma receptor (sigma-1 and sigma-2 sites)', 'Ki', '1.8 nM'),
  ('O=C(CCCCN1CC=C(c2ccc(Cl)cc2)CC1)c1ccc(Cl)cc1 [Compound 12]', 'sigma receptor (sigma-1 and sigma-2 sites)', 'Ki', '4.3 nM'),
  ('O=C(CCCCN1CCCCC1)c1cccc(Cl)c1 [Compound 20]', 'sigma receptor (sigma-1 and sigma-2 sites)', 'Ki', '3.8 nM');

q: Data request, read-out Ki, for COc1cccc(CCCCCN2CCCCC2)c1 [Compound 25]
a: 10.7 nM

q: Would you mind telling me what Ki value was observed for O=C(CCCCN1CCC(c2ccccc2)CC1)c1ccc(F)cc1 [Compound 5] ?
a: 0.8 nM

q: Can you look up the measured Ki of Clc1ccc(CCCCCN2CCC(c3ccccc3)CC2)cc1 [Compound 15] for me?
a: 1.8 nM

q: Dear colleague, I am looking for the recorded Ki of the following molecule: O=C(CCCCN1CC=C(c2ccc(F)cc2)CC1)c1ccc(Cl)cc1 [Compound 13]
a: 2 nM

q: Data request, read-out Ki, for COc1ccc(C(=O)CCCCN2CCCCC2)cc1 [Compound 21]
a: 9.9 nM

q: # Ki lookup, item O=C(CCCCN1CCCCC1)c1ccccc1 [Compound 17]
a: 25.2 nM

q: Please give the measured Ki for this molecule: O=C(CCCCN1CCCCC1)c1ccc(Cl)cc1 [Compound 19]
a: 1.2 nM

q: Suppose we examine the molecule O=C(CCCCN1CCC(c2ccccc2)CC1)c1cccc(Cl)c1 [Compound 8] ; what Ki value has been reported?
a: 1.1 nM

q: Which measured Ki value corresponds to COc1ccc(C(=O)CCCCN2CCC(c3ccccc3)CC2)cc1 [Compound 2, Hydrochloride] ?
a: 0.8 nM

q: For c1ccc(CCCCCN2CCC(c3ccccc3)CC2)cc1 [Compound 14] , what is its reported Ki?
a: 0.9 nM

q: Reported Ki, molecule O=C(CCCCN1CCC(O)(c2ccc(Cl)cc2)CC1)c1ccc(F)cc1 [Compound 4] : ____
a: 2.6 nM

q: Look up Ki: COc1ccc(CCCCCN2CCC(c3ccccc3)CC2)cc1 [Compound 16]
a: 1.2 nM

q: Would you kindly share the measured Ki for c1ccc(CCCCCN2CCCCC2)cc1 [Compound 23] ?
a: 1.9 nM

q: So what does the record say about Ki for O=C(CCCCN1CCC(c2ccccc2)CC1)c1ccccc1 [Compound 6] ?
a: 0.9 nM

q: Item Clc1ccc(CCCCCN2CCCCC2)cc1 [Compound 3, Hydrochloride] has what recorded Ki?
a: 2 nM

Origin of the recorded values: patent US6087346A
